# subject_of_test: monoclonal antibody D32.39
surface (amide) = not defined here
observation_type: Normalized Intensity (%)

Would you please look over these solved cases?
Ac-RRQFKV-{surface (amide)} (reading uncertain; also: C-terminus amide-linked to surface) [RRQFKV, surface-immobilized peptide]	16
Ac-RRQFKVVT-{surface (amide)} (reading uncertain; also: C-terminus amide-linked to surface) [RRQFKVVT, surface-immobilized peptide]	99
Ac-FLRRQFKV-{surface (amide)} (reading uncertain; also: C-terminus amide-linked to surface) [FLRRQFKV, surface-immobilized peptide]	14
Ac-QFKV-{surface (amide)} (reading uncertain; also: C-terminus amide-linked to surface) [QFKV, surface-immobilized peptide]	11
Ac-RRQFKVV-{surface (amide)} (reading uncertain; also: C-terminus amide-linked to surface) [RRQFKVV, surface-immobilized peptide]	58

[I] Ac-QFKVV-{surface (amide)} (reading uncertain; also: C-terminus amide-linked to surface) [QFKVV, surface-immobilized peptide]
[II] Ac-FLRRQFK-{surface (amide)} (reading uncertain; also: C-terminus amide-linked to surface) [FLRRQFK, surface-immobilized peptide]
INPUT: Hi there, can you help? I need to know whether I or II has lower measured Normalized Intensity (%). Answer = label.
OUTPUT: II
(II: 10%, I: 17%)
